Ref: paper doi:10.1101/2025.08.03.668247

Molecular target: T1, L-Triple (Drosophila melanogaster, UniProt Q9W1K4 512-819, R753E;K754E;K755E)
T1 sequence: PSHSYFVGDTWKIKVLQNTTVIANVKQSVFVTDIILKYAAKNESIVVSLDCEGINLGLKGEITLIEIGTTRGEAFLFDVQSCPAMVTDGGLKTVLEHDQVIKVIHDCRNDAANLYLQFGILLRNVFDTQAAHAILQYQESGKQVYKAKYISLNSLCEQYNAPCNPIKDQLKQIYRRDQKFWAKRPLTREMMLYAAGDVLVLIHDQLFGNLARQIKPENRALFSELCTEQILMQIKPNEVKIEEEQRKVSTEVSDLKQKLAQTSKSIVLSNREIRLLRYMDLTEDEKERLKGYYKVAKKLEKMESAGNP
Assay: fluorescence anisotropy; FA: 20 mM HEPES-NaOH pH 7.5, 100 mM NaCl, 10% glycerol, 20 C, 10 nM FAM-RNA; competition: 150 nM Egl512-819 + 10 nM FAM-K10 TLS, same buffer
Conditions: protein: recombinant; tags: N-terminal GST; label: 5'-6-FAM; hairpin with two bulges
quantity: Kd (nM)

> print(dat)
                                     binder  quantity  value.measured
1  CUUGAUUGUAUUUUUAAAUUAAUUCUUAAAAACUACAAAUUAAG (structured_RNA) [K10 TLS (FAM)]        Kd            1460
